Biological target: T1, recombinant, soluble human ASGR-1 (human, UniProt P07306 62-291)
T1 construct: biotinylated in the binning assay; also called soluble huASGR-1; Soluble ASGR-1 (Amgen)
T1 sequence: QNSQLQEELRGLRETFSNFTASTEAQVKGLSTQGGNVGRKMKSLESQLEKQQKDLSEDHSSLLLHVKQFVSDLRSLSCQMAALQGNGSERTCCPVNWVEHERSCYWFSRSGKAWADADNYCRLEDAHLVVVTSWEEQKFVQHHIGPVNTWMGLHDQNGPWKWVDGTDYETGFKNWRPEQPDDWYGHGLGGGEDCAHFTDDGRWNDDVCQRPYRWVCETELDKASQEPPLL
Test: Octet BLI dissociation, pH 5.6 minus calcium
% Change Compared to pH 7.4 + Calcium listing for selected binders.
Write the value in % as a bare number.

# count of solved cases: 4
Binder	% Change Compared to pH 7.4 + Calcium (%)
50D4 (antibody, V domains shown, hybridoma mAb) VH: QVQLVQSGAEVKKPGASVKVSCKASGYTFTGYHMHWVRQAPGQGLEWMGWINPNNNATNYAQSFQGRVTLTRDTSISTAYMELSRLRSDDTAVYYCARDGTSSFDFWGQGTLVTVSS VL: DIQMTQSPSSVSASVGDRLTITCRASQGISRWLAWYQQKPGKAPKVLIYAASTLQSGVPSRFSGSGSGTDFTLTISSLQPEDFATYYCQQANSFPFTFGPGTKVDIR	9
194B7 (antibody, V domains shown, hybridoma mAb) VH: QVQLVESGGGVVQPGRSLRLSCAASGFTFSSYGMHWVRQAPGKGLEWVAVIWYDGSNKNYADSVKGRFTISRDNSKNTLYLQMNSLRAEDTAVYYCARDRSKGYDGMDVWGQGTTVTVSS VL: DIQMTQSPSSLSASVGDRVTITCRASQGISKYLAWFQQKPGKAPKSLIYGASRLQSGVPSKFSGSGSGTDFTLTISSLQPEDFATYYCQHYLNYPLTFGQGTRLEIK	-4
204G6 (antibody, V domains shown, hybridoma mAb) VH: QVQLVESGGGVVQPGRSLRLSCTASGFTFSSYGMHWVRQAPGKGLEWVAVIWYDGSNKNYADSVKGRFTISRDNSKNTLYLQMNSLRAEDTAVYYCARDRGVGYDGMDVWGQGTTVTVSS VL: DIRMTQSPSSLSASVGDRITITCRTSQGIGNYLAWFQQKPGKAPKSLIYAASSLQSGVPSRFSGSGSGTDFTLTISSLQPEDFATYYCQHYLSYPLTFGGGTKVEIK	-10
60D2 (antibody, V domains shown, hybridoma mAb) VH: EVQLVESGGGLVQPGGSLRLSCGASGFTFSSYSMNWVRQAPGKGLEWVSYISESSNIIYYTDSVKGRFTISRDNAMNSLYLQMNSLRDEDTAVYYCARADTPMVLYFYGMDVWGQGTTVTVSS VL: SYELTQPPSVSVSPGQTASITCSGNKLGDKYASWYQQRPGQSPVLVIYQDNKRPSGIPERFSGSNSGNTATLTISGTQTMDEADYYCQAWDNNTVVFGGGTKLTVL	49

Attention now shifts to the item below.
Suppose we examine the binder 25A4 (antibody, V domains shown, hybridoma mAb) VH: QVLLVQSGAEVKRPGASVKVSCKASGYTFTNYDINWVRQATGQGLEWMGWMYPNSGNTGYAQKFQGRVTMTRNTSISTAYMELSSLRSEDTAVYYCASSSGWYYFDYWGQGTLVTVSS VL: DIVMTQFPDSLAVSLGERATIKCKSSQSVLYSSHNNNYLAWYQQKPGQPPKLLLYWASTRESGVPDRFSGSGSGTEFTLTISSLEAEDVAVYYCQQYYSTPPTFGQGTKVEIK ; what % Change Compared to pH 7.4 + Calcium value has been reported? -1
